molecular target: Human FRA on IGROV-1 human ovarian adenocarcinoma cells (human, UniProt P15328 25-234); assay: cell-based or functional assay
Sequence (P15328 25-234 limits assumed): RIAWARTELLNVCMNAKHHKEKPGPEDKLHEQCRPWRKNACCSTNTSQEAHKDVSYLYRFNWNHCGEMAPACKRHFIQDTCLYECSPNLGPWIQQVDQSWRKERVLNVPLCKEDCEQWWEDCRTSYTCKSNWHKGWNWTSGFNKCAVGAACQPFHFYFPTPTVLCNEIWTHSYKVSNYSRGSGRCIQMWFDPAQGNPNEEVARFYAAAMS
Assay endpoint: INTL % (150 min) (%)
Please state the figure in %; there is no need to write the unit.

Consider the following illustrative entries.
# Binder, INTL % (150 min) [%]
rows = [
    ("MORAb-003 anti-FRA antibody, lot NB859-27 (harvested 20 days after initiation of culture) (antibody, human IgG1, kappa, V domains shown, N-linked neutral glycans at Asn299 in SEQ ID NO: 5, also called Day 20 harvest) VH: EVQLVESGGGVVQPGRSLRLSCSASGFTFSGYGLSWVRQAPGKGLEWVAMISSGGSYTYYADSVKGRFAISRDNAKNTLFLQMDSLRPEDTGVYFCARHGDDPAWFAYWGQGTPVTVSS VL: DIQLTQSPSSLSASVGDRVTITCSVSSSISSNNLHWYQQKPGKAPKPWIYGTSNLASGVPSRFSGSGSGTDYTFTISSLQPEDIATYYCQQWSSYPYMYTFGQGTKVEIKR", 51),
    ("MORAb-003 anti-FRA antibody, lot NB859-24 (harvested 10 days after initiation of culture) (antibody, human IgG1, kappa, V domains shown, N-linked neutral glycans at Asn299 in SEQ ID NO: 5, also called Day 10 harvest) VH: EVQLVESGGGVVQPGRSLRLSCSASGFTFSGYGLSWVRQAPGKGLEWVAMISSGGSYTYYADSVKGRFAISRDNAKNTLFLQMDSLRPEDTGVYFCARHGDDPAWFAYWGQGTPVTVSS VL: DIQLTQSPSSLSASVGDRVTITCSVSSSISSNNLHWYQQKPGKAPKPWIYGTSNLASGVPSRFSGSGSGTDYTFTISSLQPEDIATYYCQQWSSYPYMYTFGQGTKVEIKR", 58),
]

Sample MORAb-003 anti-FRA antibody, lot NB859-28 (low DO; harvested 14 days after initiation of culture) (antibody, human IgG1, kappa, V domains shown, N-linked neutral glycans at Asn299 in SEQ ID NO: 5, also called low DO (round 3)) VH: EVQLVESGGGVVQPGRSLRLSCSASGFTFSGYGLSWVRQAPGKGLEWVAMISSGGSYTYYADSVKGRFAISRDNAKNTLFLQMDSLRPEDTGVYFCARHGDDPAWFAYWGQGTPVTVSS VL: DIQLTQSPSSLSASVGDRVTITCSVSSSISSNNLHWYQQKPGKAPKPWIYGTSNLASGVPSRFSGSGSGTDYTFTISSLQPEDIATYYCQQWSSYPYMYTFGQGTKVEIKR — what was its INTL % (150 min)?
53

What do you have for MORAb-003 anti-FRA antibody, lot NB809-68 (high CO2; harvested 13 days after initiation of culture) (antibody, human IgG1, kappa, V domains shown, N-linked neutral glycans at Asn299 in SEQ ID NO: 5) VH: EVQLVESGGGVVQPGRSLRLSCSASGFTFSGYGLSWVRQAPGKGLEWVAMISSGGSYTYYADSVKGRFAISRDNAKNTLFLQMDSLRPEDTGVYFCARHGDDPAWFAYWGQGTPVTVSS VL: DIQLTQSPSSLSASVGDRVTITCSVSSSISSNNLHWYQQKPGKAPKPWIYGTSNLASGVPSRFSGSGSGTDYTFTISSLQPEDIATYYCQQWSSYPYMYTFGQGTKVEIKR ?
52

For MORAb-003 anti-FRA antibody, lot NB810-13 (high osmolarity; harvested 14 days after initiation of culture) (antibody, human IgG1, kappa, V domains shown, N-linked neutral glycans at Asn299 in SEQ ID NO: 5) VH: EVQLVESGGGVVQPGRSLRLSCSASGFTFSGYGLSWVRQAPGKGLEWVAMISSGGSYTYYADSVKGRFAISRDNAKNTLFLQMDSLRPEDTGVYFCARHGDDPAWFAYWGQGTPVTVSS VL: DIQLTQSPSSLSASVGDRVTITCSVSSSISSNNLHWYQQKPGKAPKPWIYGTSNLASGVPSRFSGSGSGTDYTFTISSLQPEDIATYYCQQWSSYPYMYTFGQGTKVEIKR then?
62
